Origin of the recorded values: ChEMBL document CHEMBL4396879

Provide the reported Ratio Ki of each item.
Molecular target: Muscarinic acetylcholine receptor M2 and M4 (Homo sapiens) (UniProt P08173+P08172)
Assay: Selectivity ratio of Ki for human muscarinic M4 receptor expressed in CHO-K9 cells to Ki for human muscarinic M2 receptor expressed in CHO-K9 cells
Format: cell-based
Numbers only.

// solved cases for Ratio Ki follow
# entrySmiles, targetOfAssay, Ratio Ki
data = [
    ("CC(=O)N[C@@H](CCC(N)=O)C(=O)N[C@@H](C)C(=O)N[C@@H](CC(C)C)C(=O)NCCCCC1CCN(CC(=O)N2c3ccccc3NC(=O)c3ccccc32)CC1", "Muscarinic acetylcholine receptor M2 and M4 (Homo sapiens) (UniProt P08173+P08172)", 1.7),
    ("CC(=O)N[C@@H](Cc1ccc(O)cc1)C(=O)N[C@@H](CCCCN)C(=O)NCCN1CCN(CCCCC2CCN(CC(=O)N3c4ccccc4NC(=O)c4ccccc43)CC2)CC1", "Muscarinic acetylcholine receptor M2 and M4 (Homo sapiens) (UniProt P08173+P08172)", 13),
]

Next compound, Ratio Ki to be filled in.
Record "CC(=O)N[C@@H](CCCCN)C(=O)N[C@@H](C)C(=O)N[C@@H](Cc1ccc(O)cc1)C(=O)NCCN1CCN(CCCCC2CCN(CC(=O)N3c4ccccc4NC(=O)c4ccccc43)CC2)CC1" . Reported Ratio Ki: 8.1
